test: growth suppression of beta-catenin knockout HCT116, pilot screen, human colon tumor cells (AID 823); details: CellTiter-Glo, 60 h, at 10 µM, stronger effect = lower value;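 note: 0% = wells killed by 20 µM Hyamine and 100% = untreated DMSO cell wells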
Inconclusive results are not listed.
quantity_name: viability (%)
Give just the number in %; leave the unit off.

The reported value for CC1(C)Cc2nc3sc4c(=O)n(CC(=O)NCc5ccco5)cnc4c3cc2CO1 in terms of viability is 40.5

The reported value for CC(NC(=O)C(C)(C)C)c1nc2ccccc2n1C (stereo not drawn) in terms of viability is 95.1

The reported value for Cc1ccc(Cn2c(Sc3nccc(C)n3)nc3c2c(=O)[nH]c(=O)n3C)cc1 in terms of viability is 83.5

The reported value for Cc1nnc(NC(=O)CCCCCN2C(=O)C3C4C=CC(C4)C3C2=O)s1 (stereo not drawn) in terms of viability is 96.7

The reported value for CCC(C)[C@@H](C(=O)Nc1ccc(OC)c(OC)c1)N1Cc2ccccc2C1=O (stereo partly drawn) in terms of viability is 91.8

The reported value for Cc1cc(C)n(C(=O)CCCC(=O)n2nc(C)cc2C)n1 in terms of viability is 105

The reported value for CCCCOC(=O)Nc1ccc(N2CCOCC2)cc1 in terms of viability is 98.2

The reported value for CN(C)CCNc1nc2c(c(=O)[nH]c(=O)n2C)n1CCCc1ccccc1 in terms of viability is 93.1

The reported value for CCOC(=O)c1cnc2ccc(Br)cc2c1NCC(C)O (stereo not drawn) in terms of viability is 91.4

The reported value for CCSc1nnc(NC(=O)CSc2nc3c(c(=O)n2CCOC)SC(C)C3)s1 (stereo not drawn) in terms of viability is 94.1

The reported value for CC1(C)CC(=O)C2=C(C1)N(c1ccc(F)cc1)C(=O)CC2c1cccnc1 (stereo not drawn) in terms of viability is 95.9

The reported value for COC(=O)c1coc(-c2ccc(C)cc2)c1C(=O)OC in terms of viability is 88.6

The reported value for Nc1nc(Nc2ccccc2Br)nc(C(F)(F)F)n1 in terms of viability is 104

The reported value for O=C(NCc1ccco1)C1CCN(c2nnc(-n3cccc3)s2)CC1 in terms of viability is 97.2

The reported value for COc1cccc(-c2nc(CS(=O)CC(=O)NCc3ccc4c(c3)OCO4)c(C)o2)c1 (stereo not drawn) in terms of viability is 97.2

The reported value for O=C(c1ccco1)N1CCN(S(=O)(=O)c2cccc3nsnc23)CC1 in terms of viability is 99

The reported value for CC(=O)Nc1nc2c(F)cccc2s1 in terms of viability is 96.5

The reported value for Cc1cc(NS(=O)(=O)c2ccc(NC(=O)CCCC(=O)O)cc2)nc(C)n1 in terms of viability is 102

----------
test: Restrictive medium S. cerevisiae growth inhibition, OD615, pilot screen of yeast lifespan reduction project, restrictive growth control (AID 706); settings: OD615, 48 h, at 10 µM, stronger effect = higher value;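 note: modified DeaD lifespan yeast strain shifted to restrictive glucose medium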
quantity_name: growth inhibition (%)
Give just the number in %; leave the unit off.

The reported value for COc1ccc(-c2cn3c(C)c(C(=O)NCc4ccc5c(c4)OCO5)sc3n2)cc1 in terms of growth inhibition is 7.5

The reported value for Cc1cccc(-n2ncc3c(N(C)Cc4ccccc4)ncnc32)c1 in terms of growth inhibition is -0.895

The reported value for O=C(O)CC12CSc3[nH]c(=O)sc3C1c1ccccc1OC2=O (centres undefined) in terms of growth inhibition is -0.005

The reported value for O=C(NC1CCCCCC1)C1C2C=CC3(CN(Cc4cccnc4)C(=O)C13)O2 (centres undefined) in terms of growth inhibition is 8.75
